In this section, each of the compounds is paired with its reported Tmax.
- protocol: Tmax in C57BL/6 mouse at 100 mg/kg, po
- Assay type: ADME, organism-based
- stated-conditions: in vivo
Number only, in h; omit the unit.

[[record]]
chemical_structure = "COc1ccc2c(C(=O)Nc3ccc(NC(=O)c4nn(C5CCN(C(=O)CC(C)(C)C#N)CC5)c5ccc(F)cc45)cc3Cl)cnn2c1"
readout_value = 7


Note: attention shifts to another entry.
State the recorded Tmax for this entry: CCc1cc(NC(=O)c2nn(C3CCN(C(=O)NC(C)(C)C)CC3)c3ccccc23)ccc1-c1n[nH]c(=O)cc1C
0.3

====

Below, each of the compounds is paired with its reported half-life at 0.5 µM value.
- protocol: Half life in human liver microsomes at 0.5 uM measured up to 45 mins by LC-MS/MS analysis
- Assay type: ADME, Microsome
Respond numerically; units are min and should not be typed.

[[record]]
chemical_structure = "CCc1cc(NC(=O)c2nn(C3CCN(C(=O)NC(C)(C)C)CC3)c3ccccc23)ccc1-c1n[nH]c(=O)c(C)c1C"
unit_of_measure = "min"
readout_value = 14


We now examine a further compound.
// returns reported half-life at 0.5 µM for input CCc1cc(NC(=O)c2nn(C3CCN(C(=O)NC(C)(C)C)CC3)c3ccccc23)ccc1-c1n[nH]c(=O)cc1C
10

====

- protocol: Cmax in C57BL/6 mouse at 100 mg/kg, po
- Format: ADME, organism-based
- Parameters: dose 100 mg/kg, route oral
- stated-conditions: in vivo
The compounds listed here are annotated with their Cmax.
Give just the number in µM; leave the unit off.

[[record]]
chemical_structure = "CCc1cc(NC(=O)c2nn(C3CCN(C(=O)NC(C)(C)C)CC3)c3ccccc23)ccc1-c1n[nH]c(=O)cc1C"
readout_value = 17.3


Continue with the compound presented below.
Would you mind telling me what Cmax value was observed for COc1ccc2c(C(=O)Nc3ccc(NC(=O)c4nn(C5CCN(C(=O)CC(C)(C)C#N)CC5)c5ccc(F)cc45)cc3Cl)cnn2c1 ?
19.3

====

- protocol: Metabolic stability in mouse liver microsomes assessed as compound remaining at 0.5 uM measured after 10 mins in presence of NADPH by LC-MS/MS analysis
- Type: ADME, Microsome
- stated-conditions: read-out: Stability
Please note: remaining at 10 min, 0.5 µM exactly at 2% is not satisfied. Only values below 2% get satisfied.

See these solved cases before continuing.
[[record]]
chemical_structure = "COc1ccc2c(C(=O)Nc3ccc(NC(=O)c4nn(C)c5ccccc45)cc3C)cnn2c1"
assigned_class = "not satisfied"

[[record]]
chemical_structure = "CCc1cc(NC(=O)c2nn(C3CCN(C(=O)NC(C)(C)C)CC3)c3ccccc23)ccc1-c1cc(C)c(=O)[nH]n1"
assigned_class = "satisfied"

[[record]]
chemical_structure = "CCc1cc(NC(=O)c2nn(C3CCN(C(=O)NC(C)(C)C)CC3)c3ccccc23)ccc1-c1n[nH]c(=O)c(C)c1C"
assigned_class = "not satisfied"

[[record]]
chemical_structure = "COc1ccc2c(C(=O)Nc3ccc(NC(=O)c4nn(C5CCN(C(=O)NC(C)(C)C)CC5)c5ccc(F)cc45)cc3Cl)cnn2c1"
assigned_class = "not satisfied"


--- query ---
Hi there! Is remaining at 10 min, 0.5 µM for CCc1cc(NC(=O)c2nn(C3CCN(C(=O)NC(C)(C)C)CC3)c3ccccc23)ccc1-c1n[nH]c(=O)cc1C below 2%, do you know?
not satisfied

====

- protocol: Metabolic stability in human liver microsomes assessed as compound remaining at 0.5 uM measured after 10 mins in presence of NADPH by LC-MS/MS analysis
- Format: ADME, Microsome
- stated-conditions: read-out: Stability
metric-name: remaining at 10 min, 0.5 µM (%)
The response must be a number in % with no trailing unit.

[[record]]
chemical_structure = "CCc1cc(NC(=O)c2nn(C3CCN(C(=O)NC(C)(C)C)CC3)c3ccccc23)ccc1-c1n[nH]c(=O)cc1C"
readout_value = 53

[[record]]
chemical_structure = "CC(C)(C)NC(=O)N1CCC(n2nc(C(=O)Nc3ccc(NC(=O)c4cnn5ccccc45)cc3)c3ccccc32)CC1"
readout_value = 71

[[record]]
chemical_structure = "CCc1cc(NC(=O)c2nn(C3CCN(C(=O)NC(C)(C)C)CC3)c3ccccc23)ccc1-c1cc(C)c(=O)[nH]n1"
readout_value = 72

[[record]]
chemical_structure = "COc1ccc2c(C(=O)Nc3ccc(NC(=O)c4nn(C5CCN(C(=O)CC(C)(C)C#N)CC5)c5ccc(F)cc45)cc3Cl)cnn2c1"
readout_value = 91

[[record]]
chemical_structure = "Cc1cc(=O)[nH]nc1-c1ccc(NC(=O)c2nn(C3CCN(C(=O)NC(C)(C)C)CC3)c3ccccc23)cc1Cl"
readout_value = 68


Next item in the queue.
Report remaining at 10 min, 0.5 µM for Cc1cc(NC(=O)c2nn(C3CCN(C(=O)NC(C)(C)C)CC3)c3ccccc23)ccc1NC(=O)c1cnn2ccccc12 please.
72

====

- protocol: Metabolic stability in human liver microsomes assessed as compound remaining at 0.5 uM measured after 10 mins in presence of NADPH by LC-MS/MS analysis
- Assay type: ADME, Microsome
- stated-conditions: read-out: Stability
metric-name: remaining at 10 min, 0.5 µM (%)
Dear colleague, please return just the value in %, with no unit written.

[[record]]
chemical_structure = "CCc1cc(NC(=O)c2nn(C3CCN(C(=O)NC(C)(C)C)CC3)c3ccccc23)ccc1-c1n[nH]c(=O)c(C)c1C"
metric_name = "remaining at 10 min, 0.5 µM"
readout_value = 61

[[record]]
chemical_structure = "COc1ccc2c(C(=O)Nc3ccc(NC(=O)c4nn(C5CCN(C(=O)NC(C)(C)C)CC5)c5ccccc45)cc3C)cnn2c1"
metric_name = "remaining at 10 min, 0.5 µM"
readout_value = 80


Need remaining at 10 min, 0.5 µM of CC(C)(C)NC(=O)N1CCC(n2nc(C(=O)Nc3ccc(NC(=O)c4cnn5ccccc45)c(Cl)c3)c3ccccc32)CC1 , thanks.
84
